test target: Melatonin receptor type 1B (Homo sapiens)
protocol description: Intrinsic activity at human MT2 receptor expressed in NIH3T3 cells assessed as stimulation of [35S]GTP-gamma-S binding relative to MLT
Type: functional, cell-based
measured endpoint: Intrinsic activity
Answers are plain numbers.

Some molecules with recorded Intrinsic activity:
[[record]]
molecule = "CC(=O)NC/C(=C\\c1ccccc1)c1ccccc1"
test_target = "Melatonin receptor type 1B (Homo sapiens)"
measured_endpoint = "Intrinsic activity"
reported_measurement = 0.18

[[record]]
molecule = "CC(=O)NCC=C(c1ccccc1)c1ccccc1"
test_target = "Melatonin receptor type 1B (Homo sapiens)"
measured_endpoint = "Intrinsic activity"
reported_measurement = 0.19

[[record]]
molecule = "CC(=O)NCC(Cc1ccccc1)c1ccccc1 (configuration not stated)"
test_target = "Melatonin receptor type 1B (Homo sapiens)"
measured_endpoint = "Intrinsic activity"
reported_measurement = -0.43

[[record]]
molecule = "CC(=O)NC/C(=C/c1ccccc1)c1ccccc1"
test_target = "Melatonin receptor type 1B (Homo sapiens)"
measured_endpoint = "Intrinsic activity"
reported_measurement = -0.15


Record Intrinsic activity per entry; entries follow.
1. COc1cccc(/C(=C\CNC(=O)C2CCC2)c2ccccc2)c1
2. CCC(=O)NCCC(c1ccccc1)c1cccc(OC)c1 (racemic)
3. CCC(=O)NCCc1cccc(Cc2ccccc2)c1

Reply:
1: -0.02; 2: 0.28; 3: 0.48
